Origin of measurements: patent US20240197788A1

- Experiment: Rotenone toxicity, trypan blue cell counting of surviving cells
- Assay type: cell-based
- Recorded conditions: human, SH-SY5Y neuroblastoma cells, 0.5 μM rotenone
Value type: viability at 48 h, 0.5 μM (%)
Enter your answer as a number in %; do not include the unit.

Fill in: viability at 48 h, 0.5 μM of C=C(C)[C@H]1Cc2c(ccc3c2O[C@@H]2COc4cc(OC)c(OC)cc4[C@@H]2C3=O)O1 is ___
55
